Assay: Solubility of BIRB 796 drug substance
Type: physicochemical
Conditions: simulated gastric fluid; polymorphic drug substance (Form IV), pH 2.0
assay_metric: solubility

Exam item: Dear colleague, please send me the reported solubility for Cc1ccc(-n2nc(C(C)(C)C)cc2NC(=O)Nc2ccc(OCCN3CCOCC3)c3ccccc23)cc1 [BIRB 796] when you can.
Marked response: ~10000 µg/mL

* * *

Experiment: Solubility of BIRB 796 drug substance
Format: physicochemical
Conditions: aqueous buffer; polymorphic drug substance (Form IV), pH 7.4
assay_metric: solubility

Exam item: Dear colleague, please send me the reported solubility for `Cc1ccc(-n2nc(C(C)(C)C)cc2NC(=O)Nc2ccc(OCCN3CCOCC3)c3ccccc23)cc1` when you can.
Marked response: ~0.5 µg/mL
